Hi there, I'd appreciate the recorded protein stability index for every entry that follows.
B1: CCDC6 (parent)
chain: FTPPTSLTRAGMSYYNSPGLHVQH

variants of: B1; experiment: protein stability index of a GFP-peptide fusion (GPS, HEK-293T) (PSI 1-6); higher = more stable; settings: c terminus: a fixed tail appended;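 note: lentivirally expressed fusions sorted by FACS into six bins by GFP to DsRed ratio, PSI derived from sequencing read proportions per bin multiplied by bin number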

L20C: 1.68
S13T: 1.39
G19L: 1.66
G19Y: 1.96

Switching to the query record.
### Prompt So what's the measured protein stability index for this one? F1R
### Response 2.19
